Kindly supply the reported viability, T/C values for the records listed here.
- Tested on: Hs578T complex spheroid growth, percent test/control
- assay_procedure: Anticancer human tumor Hs578T cell line growth inhibition [AhR];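 further: luminescent viability signal as a proxy for spheroid growth; spheroids exposed to agents for one week after three days of growth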
- stated_conditions: second compound 1 µM; first compound 0.0316 µM; active compounds read low
Numbers only, in %.

>>> measurement("COc1cc(C2c3cc4c(cc3C(OC3OC5COC(C)OC5C(O)C3O)C3COC(=O)C23)OCO4)cc(OC)c1O (stereo not drawn) + CC(CO)NC(=O)c1cc(-c2ccc(Cl)cc2)nn(-c2cnn(C)c2)c1=O")
108

List reported viability, T/C for each of these compounds:
1. CC[C@@]1(O)C(=O)OCc2c1cc1n(c2=O)Cc2cc3c(CN(C)C)c(O)ccc3nc2-1 + CC(CO)NC(=O)c1cc(-c2ccc(Cl)cc2)nn(-c2cnn(C)c2)c1=O
2. NS(=O)(=O)OCC1CC(n2ccc3c(NC4CCc5ccccc54)ncnc32)CC1O (stereo not drawn) + CC(CO)NC(=O)c1cc(-c2ccc(Cl)cc2)nn(-c2cnn(C)c2)c1=O

Reply:
91.4
109

====

- Test system: Hs578T complex spheroid growth, percent test/control
- assay_procedure: Anticancer human tumor Hs578T cell line growth inhibition [AhR];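 further: luminescent viability signal as a proxy for spheroid growth; spheroids exposed to agents for one week after three days of growth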
- stated_conditions: second compound 0.316 µM; first compound 0.316 µM; active compounds read low
reported_metric: viability, T/C

Here are 4 molecules together with their reported answers.
>>> measurement("Nc1ncn(C2CC(O)C(CO)O2)c(=O)n1 (stereo not drawn) + Cc1ccccc1N=Nc1ccc(NC(=O)c2ccnn2C)c(C)c1")
"85.8%"
>>> measurement("Nc1ncn(C2CC(O)C(CO)O2)c(=O)n1 (stereo not drawn) + Cc1cncc(-c2nc(NCCc3c[nH]c4ccccc34)c3ncn(C(C)C)c3n2)c1")
"106%"
>>> measurement("Nc1ccccc1NC(=O)c1ccc(CNC(=O)OCc2cccnc2)cc1 + Cc1ccccc1N=Nc1ccc(NC(=O)c2ccnn2C)c(C)c1")
"82.5%"
>>> measurement("CC1(C)CCC(CN2CCN(c3ccc(C(=O)NS(=O)(=O)c4ccc(NCC5CCOCC5)c([N+](=O)[O-])c4)c(Oc4cnc5[nH]ccc5c4)c3)CC2)=C(c2ccc(Cl)cc2)C1 + CC(CO)NC(=O)c1cc(-c2ccc(Cl)cc2)nn(-c2cnn(C)c2)c1=O")
"110%"

List reported viability, T/C for each of these molecules:
1. CC(C)c1c(-c2ccccc2)nc2c(C#N)c[nH]n2c1=O + CC(CO)NC(=O)c1cc(-c2ccc(Cl)cc2)nn(-c2cnn(C)c2)c1=O
2. CC(C)c1c(-c2ccccc2)nc2c(C#N)c[nH]n2c1=O + Cc1cncc(-c2nc(NCCc3c[nH]c4ccccc34)c3ncn(C(C)C)c3n2)c1
3. CC1COCCN1c1cc(-c2ccnn2C)c2ccnc(-c3ccn[nH]3)c2n1 (stereo not drawn) + CC(CO)NC(=O)c1cc(-c2ccc(Cl)cc2)nn(-c2cnn(C)c2)c1=O
4. O=C(c1cc(Cc2n[nH]c(=O)c3ccccc23)ccc1F)N1CCN(C(=O)C2CC2)CC1 + Cc1cncc(-c2nc(NCCc3c[nH]c4ccccc34)c3ncn(C(C)C)c3n2)c1
5. CC1COCCN1c1cc(-c2ccnn2C)c2ccnc(-c3ccn[nH]3)c2n1 (stereo not drawn) + Cc1ccccc1N=Nc1ccc(NC(=O)c2ccnn2C)c(C)c1

Reply:
123%
113%
59.7%
132%
46.6%

List reported viability, T/C for each of these molecules:
1. CC1(C)CCC(CN2CCN(c3ccc(C(=O)NS(=O)(=O)c4ccc(NCC5CCOCC5)c([N+](=O)[O-])c4)c(Oc4cnc5[nH]ccc5c4)c3)CC2)=C(c2ccc(Cl)cc2)C1 + Cc1ccccc1N=Nc1ccc(NC(=O)c2ccnn2C)c(C)c1
2. COc1ccc([C@@H](O)c2cc(-c3ncnc4cc(N5CCOCC5)ccc34)c(F)cc2Cl)nn1 + Cc1ccccc1N=Nc1ccc(NC(=O)c2ccnn2C)c(C)c1
3. Nc1ccn(C2OC(CO)C(O)C2(F)F)c(=O)n1 (stereo not drawn) + Cc1cncc(-c2nc(NCCc3c[nH]c4ccccc34)c3ncn(C(C)C)c3n2)c1

Reply:
["113%", "99.4%", "63%"]

Ask: // output viability, T/C; input NS(=O)(=O)OCC1CC(n2ccc3c(NC4CCc5ccccc54)ncnc32)CC1O (stereo not drawn) + Cc1ccccc1N=Nc1ccc(NC(=O)c2ccnn2C)c(C)c1 ; system Hs578T complex spheroid growth, percent test/control
Reply: 71.2%
